tested on: Plasmodium falciparum Sir2 (PF13_0152, Sir2A); test: Plasmodium falciparum Sir2A binding compounds – biochemical, small-molecule microarray, 635 nm fluorescence, primary screen (AID 1098); conditions: fluorescence 635 nm, higher = more signal;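 further: score merges spot fluorescence intensity with its signal-to-noise ratio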
quantity-kind: composite z-score

compound=CC(C)[C@@H](C(=O)O)n1cc(C2(O)CCCCC2)nn1 result=0.221
compound="CCCCN1CC=CC23O[C@@H]4C=CCCOC(=O)C4[C@H]2C(=O)N(CCCCCO)[C@@H]3C1=O (some centres undefined)" result=1.2
compound=O=C(CS)NCCCCCNC(=O)[C@H]1C[C@H]2C(=O)NCC(=O)N2[C@H]1c1cccc(OCCO)c1 result=1.59
compound=CCCCC(=C=CC[C@@H](O)c1cccc(OCCO)c1)C[C@@H](O)c1ccccn1 result=1.6

----------
assay: probe aWnt5a binding to arrayed compounds – biochemical, biotinylated probe, 635/667 nm fluorescence, primary screen (AID 1113); conditions: small-molecule microarray, higher = more signal;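 further: score merges 667 nm fluorescence intensity with signal-to-noise per printed feature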
Below, each of the molecules is paired with its reported composite z-score value.
quantity-kind: composite z-score

molecule=COc1ccc([Si](C)(C)[C@@H]2[C@@H](CCn3cc([C@H](O)c4ccccc4)nn3)O[C@]3(C(=O)N(Cc4cccc(N5CCC5=O)c4)c4ccccc43)[C@H]2C)cc1 result=-0.0919
molecule="O=C1C2C=CC(C(O)C=Cc3ccc([N+](=O)[O-])cc3)N(n3cnnc3)C2C(=O)N1Cc1ccccc1 (configuration not stated)" result=0.0633
molecule=COC(=O)[C@@]1(Cc2ccc(OC)cc2)[C@H]2c3cc(C(=O)N4CCCC4)n(Cc4nc5ccccc5[nH]4)c3C[C@H]2CN1C(=O)c1ccccc1 result=0.216
molecule=COC(=O)C(CC#Cc1ccc2c(c1)[C@]1(C(=O)N2)[C@H](c2ccccc2OCCO)N2[C@H](c3ccccc3)[C@H](c3ccccc3)OC(=O)[C@H]2[C@@H]1C(=O)O)C(=O)OC result=0.0597
molecule=CO[C@H]1O[C@H](CO)[C@@H](OC(=O)Nc2cccc(F)c2)[C@H](OC(=O)Nc2ccccc2)[C@H]1OC(=O)Nc1ccccc1 result=-0.0222
molecule=O=C(NCc1ccccc1)[C@@H]1c2ccccc2C(=O)N(C2Cc3ccccc3C2)[C@H]1c1ccc(CO)cc1 result=-0.101
molecule="CCCCC(O)C1C=CC2C(=O)N(C)C(=O)C2N1N1CCCCC1 (configuration not stated)" result=0.0251
molecule=COc1ccc(C(=O)Nc2cccc(CN3C(=O)[C@]4(O[C@H](CCn5cc(CCO)nn5)[C@@H]([Si](C)(C)c5ccc(OC)cc5)[C@@H]4C)c4ccccc43)c2)cc1 result=-0.0685
molecule=C=CCN1C(=O)[C@]2(O[C@H](CCO)[C@@H]([Si](C)(C)c3ccc(OC)cc3)[C@@H]2C)c2cc(N(C=O)c3ccccc3)ccc21 result=-0.096
molecule=COC(=O)[C@@]1(Cc2ccc(F)cc2)[C@H]2c3cc(C(=O)N(C)C)n(Cc4cc(C)n(C)n4)c3C[C@H]2CN1C(=O)c1ccccc1 result=0.418
molecule="O=C1OCCC=C[C@H]2OC34C=CCN(Cn5nnc6ccccc65)C(=O)[C@H]3N(CCO)C(=O)[C@@H]4C12 (some centres not stated)" result=-0.252
molecule="O=C(O)C1N=C(c2ccc(OCCCO)cc2)N(c2ccccc2)O1 (configuration not stated)" result=-0.0478
molecule=Cc1c(NC(=O)/C(C#N)=C/c2cccc([N+](=O)[O-])c2)c(=O)n(-c2ccccc2)n1C result=-0.0819
molecule=COC(=O)[C@@]1(Cc2ccc(OC)cc2)[C@H]2c3cc(C(=O)N4CCCC4)n(CCCNc4ncc(C(F)(F)F)cc4Cl)c3C[C@H]2CN1C(=O)c1ccccc1 result=0.901
molecule="CC(=O)n1cc(C(O)C2C=CC3C(=O)NC(=O)C3N2Nc2ccccn2)c2ccccc21 (configuration not stated)" result=-0.124
molecule="COc1cc(OC)c(C(O)C2C=CC3C(=O)NC(=O)C3N2Nc2ccccn2)cc1Br (configuration not stated)" result=-0.0684
molecule=CC(C)[Si](C#C[Si](C(C)C)(C(C)C)C(C)C)(O[C@H](C)c1cn(Cc2ccccc2)nn1)C(C)C result=-0.0893
molecule=CCOC(=O)C1=CC[C@@H](c2ccc(C(F)(F)F)cc2)N(S(=O)(=O)c2ccc(C)cc2)[C@H]1c1ccccc1 result=0.201
molecule=CCCC=C(CCC)[C@@H](NS(=O)(=O)c1ccc(Cl)cc1)c1ccc(C(=O)OC)cc1 result=-0.183
molecule=O=C(NC1CC1)[C@@H]1c2ccccc2C(=O)N(Cc2cc(F)cc(C(F)(F)F)c2)[C@H]1c1ccc(CO)cc1 result=-0.161
molecule=CN(C)CCCC[C@@H]1NC(=O)[C@H]2C[C@@H](C(=O)NCCCCCN)[C@@H](c3cccc(OCCO)c3)N2C1=O result=0.233
molecule=CCCNC(=O)[C@@]1(Sc2ccc(C)cc2)CC(=O)N(Cc2ccccc2C(F)(F)F)[C@@H]1c1ccc(CO)cc1I result=-0.0519
